target: Recombinant kinase JAK3 (Homo sapiens (Human), UniProt P52333); assay: In vitro JAK kinase inhibition assay (ADP-Glo), JAK3; settings: 30 μM ATP, peptide IGF-1Rtide, averaged
Sequence (P52333 whole entry): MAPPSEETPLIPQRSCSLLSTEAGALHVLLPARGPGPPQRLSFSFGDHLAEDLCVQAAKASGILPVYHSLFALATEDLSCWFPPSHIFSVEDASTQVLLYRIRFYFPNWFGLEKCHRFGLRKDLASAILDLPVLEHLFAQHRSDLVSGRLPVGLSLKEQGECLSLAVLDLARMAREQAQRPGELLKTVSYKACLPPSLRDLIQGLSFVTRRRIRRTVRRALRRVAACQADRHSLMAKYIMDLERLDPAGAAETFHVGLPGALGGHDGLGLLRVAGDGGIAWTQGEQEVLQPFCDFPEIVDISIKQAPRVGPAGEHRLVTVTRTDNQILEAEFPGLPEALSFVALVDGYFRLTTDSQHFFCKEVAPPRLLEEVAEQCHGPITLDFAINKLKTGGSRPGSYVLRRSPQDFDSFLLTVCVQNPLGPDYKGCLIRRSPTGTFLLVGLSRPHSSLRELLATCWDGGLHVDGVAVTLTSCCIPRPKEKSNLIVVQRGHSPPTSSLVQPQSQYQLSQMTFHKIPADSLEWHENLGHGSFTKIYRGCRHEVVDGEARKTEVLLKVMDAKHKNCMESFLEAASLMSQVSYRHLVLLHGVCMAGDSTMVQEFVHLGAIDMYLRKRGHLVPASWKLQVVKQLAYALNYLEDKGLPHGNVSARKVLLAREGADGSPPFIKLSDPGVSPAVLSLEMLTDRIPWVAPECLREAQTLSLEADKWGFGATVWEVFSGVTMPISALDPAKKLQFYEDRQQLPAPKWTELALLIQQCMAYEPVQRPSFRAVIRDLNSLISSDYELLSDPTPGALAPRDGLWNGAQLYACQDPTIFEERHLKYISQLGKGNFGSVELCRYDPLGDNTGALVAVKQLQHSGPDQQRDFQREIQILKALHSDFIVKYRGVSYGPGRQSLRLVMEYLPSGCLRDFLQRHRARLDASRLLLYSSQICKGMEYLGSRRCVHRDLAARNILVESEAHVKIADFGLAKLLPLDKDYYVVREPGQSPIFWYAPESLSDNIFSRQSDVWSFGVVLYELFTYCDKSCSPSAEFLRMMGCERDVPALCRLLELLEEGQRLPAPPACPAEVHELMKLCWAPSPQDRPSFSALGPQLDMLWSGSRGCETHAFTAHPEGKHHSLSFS
Measured Parameter: pIC50
Note: pIC50 values are expressed as the negative base-10 logarithm of concentration in M.

Below, each entry is followed by its recorded pIC50 result.
CC1(C)CN(c2ccc(C#N)nn2)CC[C@H]1Nc1c(C(N)=O)cnc2cc(-c3ccnc(N4CCOCC4)c3)nn12 [Example 13]; 9.70
CC1(C)CN(c2ccc(C#N)nn2)CC[C@H]1Nc1c(C(N)=O)cnc2cc(-c3ccc(F)nc3)nn12 [Example 10]; 9.22
CC1(C)CN(c2ccc(C#N)nn2)CC[C@H]1Nc1c(C(N)=O)cnc2cc(-c3ccc(N)nc3)nn12 [Example 6]; 9.80

Attention now shifts to the item below.
COc1ncc(-c2cc3ncc(C(N)=O)c(N[C@@H]4CCN(c5ccc(C#N)nn5)CC4(C)C)n3n2)cn1 [Example 8] yielded pIC50 of 8.65

---

target: Recombinant kinase JAK1 (Homo sapiens (Human)); experiment: In vitro JAK kinase inhibition assay (ADP-Glo), JAK1; conditions: 30 μM ATP, peptide IRS-1, averaged
Sequence (P23458 whole entry): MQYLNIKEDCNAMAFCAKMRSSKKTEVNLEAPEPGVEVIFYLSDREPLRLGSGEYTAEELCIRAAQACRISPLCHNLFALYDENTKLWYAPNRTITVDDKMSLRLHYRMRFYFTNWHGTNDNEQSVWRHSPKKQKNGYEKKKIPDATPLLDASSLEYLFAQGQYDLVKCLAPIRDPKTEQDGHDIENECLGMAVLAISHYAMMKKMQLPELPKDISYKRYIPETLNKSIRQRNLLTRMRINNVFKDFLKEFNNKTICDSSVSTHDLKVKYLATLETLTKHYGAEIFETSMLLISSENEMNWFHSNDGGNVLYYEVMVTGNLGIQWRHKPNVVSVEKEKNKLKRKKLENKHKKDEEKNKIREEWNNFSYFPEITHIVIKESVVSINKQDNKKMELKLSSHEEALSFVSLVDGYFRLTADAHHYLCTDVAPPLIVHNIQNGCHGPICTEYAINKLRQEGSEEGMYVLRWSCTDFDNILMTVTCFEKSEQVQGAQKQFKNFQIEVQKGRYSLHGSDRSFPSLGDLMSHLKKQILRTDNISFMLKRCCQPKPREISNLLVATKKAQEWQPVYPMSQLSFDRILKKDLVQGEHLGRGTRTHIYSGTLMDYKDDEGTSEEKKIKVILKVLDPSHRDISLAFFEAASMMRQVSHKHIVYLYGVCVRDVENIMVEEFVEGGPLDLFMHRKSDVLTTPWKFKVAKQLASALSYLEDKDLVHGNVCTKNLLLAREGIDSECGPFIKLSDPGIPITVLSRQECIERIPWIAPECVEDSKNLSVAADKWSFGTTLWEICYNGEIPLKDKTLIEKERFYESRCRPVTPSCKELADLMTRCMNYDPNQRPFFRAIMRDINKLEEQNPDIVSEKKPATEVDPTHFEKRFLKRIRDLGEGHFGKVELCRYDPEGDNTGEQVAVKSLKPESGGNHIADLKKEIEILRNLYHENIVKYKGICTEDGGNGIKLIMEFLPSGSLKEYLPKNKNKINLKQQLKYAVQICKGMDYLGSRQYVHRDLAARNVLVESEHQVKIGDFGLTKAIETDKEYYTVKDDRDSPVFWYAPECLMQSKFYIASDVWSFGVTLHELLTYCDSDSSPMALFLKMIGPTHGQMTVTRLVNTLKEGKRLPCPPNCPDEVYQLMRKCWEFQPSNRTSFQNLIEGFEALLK
Entries and their pIC50 values follow.
// pIC50: -log10(molar conc.)

CC1(C)CN(c2ccc(C#N)nn2)CC[C@H]1Nc1c(C(N)=O)cnc2cc(-c3ccnc(N4CCOCC4)c3)nn12; 9.29
COc1cccc(-c2cc3ncc(C(N)=O)c(N[C@@H]4CCN(c5ccc(C#N)nn5)CC4(C)C)n3n2)n1; 10.30
COc1ccc(-c2cc3ncc(C(N)=O)c(N[C@@H]4CCN(c5ccc(C#N)nn5)CC4(C)C)n3n2)cn1; 8.57
CC1(C)CN(c2ccc(C#N)nn2)CC[C@H]1Nc1c(C(N)=O)cnc2cc(-c3cccnc3)nn12; 8.35
COc1ccc(F)c(-c2cc3ncc(C(N)=O)c(N[C@@H]4CCN(c5ccc(C#N)nn5)CC4(C)C)n3n2)c1; 8.43
COc1ccc(-c2cc3ncc(C(N)=O)c(N[C@@H]4CCN(c5ccc(C#N)nn5)CC4(C)C)n3n2)cc1; 8.74

Below: the item to evaluate.
Item: `CC1(C)CN(c2ccc(C#N)nn2)CC[C@H]1Nc1c(C(N)=O)cnc2cc(-c3ccc(F)nc3)nn12` | pIC50: 8.63

---

target: Recombinant kinase JAK2 (Homo sapiens (Human), UniProt O60674); test: In vitro JAK kinase inhibition assay (ADP-Glo), JAK2; conditions: 30 μM ATP, peptide IGF-1Rtide, averaged
Sequence (O60674 whole entry): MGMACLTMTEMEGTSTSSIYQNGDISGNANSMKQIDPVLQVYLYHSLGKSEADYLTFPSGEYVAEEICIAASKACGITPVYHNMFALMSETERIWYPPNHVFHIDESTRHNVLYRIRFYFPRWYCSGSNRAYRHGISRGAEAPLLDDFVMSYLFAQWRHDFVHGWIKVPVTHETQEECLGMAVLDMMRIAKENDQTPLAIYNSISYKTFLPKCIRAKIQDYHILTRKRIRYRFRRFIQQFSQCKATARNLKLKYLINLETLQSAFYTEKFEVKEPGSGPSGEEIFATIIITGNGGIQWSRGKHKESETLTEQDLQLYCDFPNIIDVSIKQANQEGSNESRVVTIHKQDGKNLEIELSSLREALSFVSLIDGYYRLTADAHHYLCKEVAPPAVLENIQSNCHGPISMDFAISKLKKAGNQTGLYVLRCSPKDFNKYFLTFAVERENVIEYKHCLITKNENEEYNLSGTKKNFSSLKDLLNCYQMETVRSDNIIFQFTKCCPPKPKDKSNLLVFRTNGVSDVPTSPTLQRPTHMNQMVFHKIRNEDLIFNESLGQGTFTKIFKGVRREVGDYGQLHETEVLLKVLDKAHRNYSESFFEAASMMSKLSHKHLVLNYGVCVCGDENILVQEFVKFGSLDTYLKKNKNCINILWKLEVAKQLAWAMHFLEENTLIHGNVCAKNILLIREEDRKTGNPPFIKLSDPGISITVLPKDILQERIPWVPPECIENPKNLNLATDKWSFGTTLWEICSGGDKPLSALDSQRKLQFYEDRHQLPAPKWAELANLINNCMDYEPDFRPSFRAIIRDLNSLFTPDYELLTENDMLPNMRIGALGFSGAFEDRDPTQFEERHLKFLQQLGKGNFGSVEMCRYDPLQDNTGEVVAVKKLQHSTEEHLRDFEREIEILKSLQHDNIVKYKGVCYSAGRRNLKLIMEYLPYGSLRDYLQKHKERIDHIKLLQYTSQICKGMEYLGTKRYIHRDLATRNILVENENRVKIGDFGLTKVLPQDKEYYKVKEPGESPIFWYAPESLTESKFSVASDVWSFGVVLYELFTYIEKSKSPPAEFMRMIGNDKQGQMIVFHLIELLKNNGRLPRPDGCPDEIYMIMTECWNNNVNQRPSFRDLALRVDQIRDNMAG
Overview of recorded pIC50 for various molecules
As a rule, pIC50 stands for the negative log10 of the concentration, concentration in M.

Here is how some molecules turned out for pIC50.
COc1ncc(-c2cc3ncc(C(N)=O)c(N[C@@H]4CCN(c5ccc(C#N)nn5)CC4(C)C)n3n2)cn1 [Example 8]; 7.57
CC1(C)CN(c2ccc(C#N)nn2)CC[C@H]1Nc1c(C(N)=O)cnc2cc(-c3ccc(F)nc3)nn12 [Example 10]; 7.89
CCOc1ncc(-c2cc3ncc(C(N)=O)c(N[C@@H]4CCN(c5ccc(C#N)nn5)CC4(C)C)n3n2)cn1 [Example 9]; 7.05
COc1ccc(-c2cc3ncc(C(N)=O)c(N[C@@H]4CCN(c5ccc(C#N)nn5)CC4(C)C)n3n2)cn1 [Example 4]; 7.56

Please fill in: pIC50 reported for CC1(C)CN(c2ccc(C#N)nn2)CC[C@H]1Nc1c(C(N)=O)cnc2cc(-c3cccnc3)nn12 [Example 3] = 7.51
